Data origin, for the record: paper PMC5540273

Test system: DDR2;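 further: KINOMEscan kinase panel screen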
measurement-parameters: concentration: 1 μM, replicates: in singlicate; n = 1
metric: %Inh
Write your answer as a measured quantity: the number, then the unit.

O=C(Nc1n[nH]c2nc(-c3ccco3)c(Br)cc12)C1CCN(Cc2ccccc2)C1.O=C(O)[C@H](O)[C@@H](O)C(=O)O (centres unmarked) : 0%
COC(=O)c1cccc(NC(=O)NC2CCN(c3ccnc(Nc4ccc(F)cc4)n3)C2)c1 (centres unmarked) : 0%
CC(C)c1ccc(O)cc1Nc1ccnc2ccc(C(F)(F)F)cc12 : 0%
Cc1cccc2c(-c3ccncn3)c(-c3ccc(F)cc3)nn12 : 16%
CC[C@@H]1CO[C@H](C(=O)Nc2ccccc2)CN1c1cc(-c2ccc3c(N)n[nH]c3c2)nc(NC)n1 : 11%
O=c1cc(N2CCOCC2)nc2n(Cc3ccccc3F)ccn12 : 0%
CC(C)c1cc(-c2ccc3c(N)n[nH]c3c2)nc(N)n1 : 4%

Prompt: I'd like to know its %Inh. The molecule in question is CN1c2ccc(-c3ccc(C(N)=O)cc3)cc2-c2[nH]ncc2S1(=O)=O
Response: 28%
